Recorded TGI, one value per entry.
System: U251 CNS
procedure.details: NCI tumour cell line growth inhibition, 48 h

# count of solved cases: 5
| compound | TGI |
| --- | --- |
| COc1cc2c(Oc3ccc(NC(=O)C4(C(=O)Nc5ccc(F)cc5)CC4)cc3F)ccnc2cc1OCCCN1CCOCC1 | 3.32 µM |
| CCn1cnc(C[C@H](NC(=O)[C@H](CCCCNC(=O)Nc2cc(C(F)(F)F)cc(C(F)(F)F)c2)NC(=O)Nc2cc(C(F)(F)F)cc(C(F)(F)F)c2)C(=O)OC)c1 | > 10 µM |
| COc1ccccc1N1CCN(CCCCNC(=O)c2ccc([N+](=O)[O-])o2)CC1 | 24.6 µM |
| COc1c(C)c(C/C=C(\C)CC/C=C(\C)CC/C=C(\C)CCC=C(C)C)c(OC)c(OC)c1OC | > 100 µM |
| C=C1C(=O)OC2C1CCC(=C)C1CC(O)C(=C)C12 (centres undefined) | 50.3 µM |

// TGI lookup, compound = O=Cc1c2c(cc3c1CC1(C3)Cc3cc4c(c(C=O)c3C1)CCCC4)CCCC2 , result: > 31.6 µM

Sample Oc1ccc(NC(=S)Nc2ccccc2)cc1 ; TGI observed: > 100 µM

Short answer for Cc1cc(=O)oc2c(C3=NN(C=O)C(c4ccccc4)C3)c(O)ccc12 (centres undefined) : TGI was > 100 µM

// TGI lookup, compound = COc1ccc2c(c1)CC[C@@H]1[C@@H]2CC[C@]2(C)/C(=N/OCCN3CCCC3)CC[C@@H]12 , result: 10.4 µM

Memo: CCCNC1=C2C[C@@H](C)C[C@@H](OC)[C@@H](OC(=O)CCCN)[C@H](C)/C=C(\C)[C@@H](OC(N)=O)[C@H](OC)/C=C\C=C(/C)C(=O)NC(=CC1=O)C2=O , reported TGI: > 35 µM

Please fill in: TGI reported for N/C(=N\N=C\c1cc2ccccc2s1)c1cnccn1 = > 100 µM

Note to self: TGI recorded for COC1(OC)CC2C(=O)N(Cc3ccccc3)C1C(S(=O)(=O)c1ccccc1)C2C(C)S(=O)(=O)c1ccccc1 (centres undefined) was > 100 µM
